- System: XF 498 CNS
- test.protocol: NCI tumour cell line growth inhibition, 48 h
endpoint.label: TGI

Asked: Tell me the measured TGI of O=C(O)CNS(=O)(=O)c1ccc(NC(=O)c2cccc([N+](=O)[O-])c2)cc1 , please.
Given back: > 100 µM

Asked: For CC1=NN(C(=O)Cc2ccccc2)C(=O)/C1=C\c1cccc(O)c1 , what is its reported TGI?
Given back: > 100 µM

Asked: Entry under review: C/C(=N\N=C(N)N)c1sc(-c2nc(C)c(/C(C)=N/N=C(N)N)s2)nc1C . Reported TGI?
Given back: > 100 µM

Asked: # lookup: TGI of CCC[CH2][Ge]([CH2]CCC)([CH2]CCC)[O]C(=O)CCl
Given back: 21.1 µM

Asked: What does the data say about its TGI? Entry: COc1ccc(C2CC(C)=Nc3c([nH]c(=S)[nH]c3=O)N2)cc1 (configuration not stated)
Given back: 59.4 µM

Asked: Requested read-out: TGI. Entry: CC(C)c1cc2c(O)c(c1)Cc1cc(C(C)C)cc(c1O)Cc1cc(C(C)C)cc(c1O)Cc1cc(C(C)C)cc(c1O)Cc1cc(C(C)C)cc(c1O)Cc1cc(C(C)C)cc(c1O)C2
Given back: > 100 µM

Asked: Please look up its TGI: N#CC(/C(=N\NC(N)=S)C(=O)NC1C2CC3CC(C2)CC1C3)c1ccc(Cl)cc1 (configuration not stated)
Given back: > 100 µM
